ASSAY_OVERVIEW: in vivo
MEASUREMENT_CONTEXT: male, C57BL/6, mouse, po
MEASURED_QUANTITY: LD50 at 14 days
Form field: result (number plus unit)

In one line, give reported LD50 at 14 days of the entry "CS(=O)(=O)OCCCCOS(C)(=O)=O" .
40 mg/kg

====

System: A549 lung cancer cells
ASSAY_OVERVIEW: Antitumor test, transplanted tumor in nude mice
Format: in vivo, human
MEASUREMENT_CONTEXT: control, drug without hydroxyapatite adsorption
Structures can show the parent of a compound that is named as a salt.
MEASURED_QUANTITY: Regression rate of transplanted cancer (T/C %) at Day 14
Form field: result (number plus unit)

- MOLECULE: "O=c1[nH]cc(F)c(=O)[nH]1 [Fluorouracil]"
  ASSAY_RESULT: "117%"
- MOLECULE: "N.N.[Cl][Pt][Cl] [Cisplatin]"
  ASSAY_RESULT: "79%"
- MOLECULE: "CC[C@]1(O)C[C@H]2CN(CCc3c([nH]c4ccccc34)[C@@](C(=O)OC)(c3cc4c(cc3OC)N(C=O)[C@H]3[C@@](O)(C(=O)OC)[C@H](OC(C)=O)[C@]5(CC)C=CCN6CC[C@]43[C@@H]65)C2)C1 [Vincristine sulfate]"
  ASSAY_RESULT: "76%"
- MOLECULE: "COc1cc([C@@H]2c3cc4c(cc3[C@@H](O[C@@H]3O[C@@H]5CO[C@@H](C)O[C@H]5[C@H](O)[C@H]3O)[C@H]3COC(=O)[C@H]23)OCO4)cc(OC)c1O [Etoposide]"
  ASSAY_RESULT: "72%"

Consider the record given below.
In one line, give reported Regression rate of transplanted cancer (T/C %) at Day 14 of the entry O=P1(N(CCCl)CCCl)NCCCO1 (centres unmarked) [Cyclophosphamide] .
86%
